# tgt: T1, soluble, non-glycosylated, recombinant human CD38 (human, UniProt P28907 43-300, Alexa 647 conjugate)
# T1 construct: also called recombinant human non-glycosylated extracellular domain of CD38
# method_description: micro-scale thermophoresis, n = 2
pKd: −log10 of the molar value.
Property: pKd; scope: individual binders
endpoint: pKd

binder	reported_result
MU523 (VHH, His6-Myc-tagged monovalent VHH; also called L-19.1a; I-19.1a) VHH: DVQLQESGGGLVQAGSSLRISCAVSGVRLDNYAMGWFRQAPGKERESVAGISWSSGTLLYSDSVKGRFAISRDNAKNTVYLQMNSLKPEDTAVYYCAAQYQDRYYDEFTWKEKDMDYWGKGTLVTVSS	8.52
MU415 (VHH, also called L+15; I+15b) VHH: VQLQASGGGLVQAGGSLRLSCTVSGFTSDDYTVGWFRQAPGLKREGLSCLSRRDGRFYHSNSVKGRFTMSSDDNKNTVYLQLDSLKPDDTAVYYCAATTSVVVLLAPNWYEYWGQGTQVTVSS	7.64
MU370 (VHH, also called I-9.2a) VHH: DVQLQASGGGSVQAGGSLTLSCRYSGGFVFRVSSMGWYRQAPGNQRELIATITVGGKTNYKDSVQGRFIISRNDTTVTLQMNRLQPEDTAVYYCNLASTAVGADTWGQGTRVTVSS	6.65
MU274 (VHH, also called L-15.2a; I-15.2a) VHH: DVQLQESGGGLVQAGGSLRLSCAASGVSFSRYTMGWYREVPGKERREFVAAVRPSGDSTYYGNSVKGRFSISRDDDKNIVYLQMNSLKPEDTAVYYCAAGFPVLVALSIADPDYWGQGTQVTVST	8.52
MU397 (VHH, His6-Myc-tagged monovalent VHH; also called L-15.1a; I-15.1a) VHH: DVQLQASGGGLVQAGGSLRLSCAPSGGTFDAYDMGWYREAPGKKRQFVAAVRSGGGTTRYADSVKGRFTISRDDAKDTVFLQMNSLKPEDTALYYCAADRWGLFSLSIATPTHWGQGTQVTVSS	9.00
MU1068 (VHH, also called L-15.1b; I-15.1b) VHH: DVQLQASGGGSVQEGESLKLSCVGSGRTFSDWAMGWYRQAPGKDREFVAAVSGAGRGGKPSYANSVKGRFTVSRDNAKNTVYLQMDNLKPEDTAVYYCAADRLVLVALSIADPGFWGQGTRVTVSS	8.86
